Molecular target: VHL Elongin B/C complex (Homo sapiens (Human))
Sequence (P40337 whole entry, looked up): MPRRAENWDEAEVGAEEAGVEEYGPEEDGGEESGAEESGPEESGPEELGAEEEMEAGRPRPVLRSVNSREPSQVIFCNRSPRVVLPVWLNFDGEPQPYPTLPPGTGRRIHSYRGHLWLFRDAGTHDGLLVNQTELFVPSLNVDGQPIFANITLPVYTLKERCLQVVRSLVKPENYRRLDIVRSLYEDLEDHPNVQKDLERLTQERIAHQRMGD
Sequence (Q15370 whole entry partner, looked up): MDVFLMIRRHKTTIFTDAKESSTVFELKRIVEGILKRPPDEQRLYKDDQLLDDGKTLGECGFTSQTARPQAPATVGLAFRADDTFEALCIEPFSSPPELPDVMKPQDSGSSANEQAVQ
Sequence (Q15369 whole entry partner, looked up): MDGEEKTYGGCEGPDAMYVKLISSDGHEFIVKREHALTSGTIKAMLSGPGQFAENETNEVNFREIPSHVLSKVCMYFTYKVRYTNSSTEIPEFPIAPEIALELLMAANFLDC
Experiment: Fluorescence Polarization (FP) VHL Binding Assay
Details: VHL binding, FP assay; geometric mean where more than one measurement
Procedure: The binding of test compounds to the VHL Elongin B/C complex was measured using a fluorescence polarization tracer competition assay. The VHL/Elongin B/C protein complex used in the assay was generated as follows. […] A VHL fluorescence polarization probe (prepared in Example 91), consisted of a VHL ligand coupled to carboxytetramethylrhodamine (TAMRA); […] […] “Post-assay” fluorescence polarization measurements were made as described for the “pre-assay” fluorescence measurement. […]
# log10(IC50) per record follows
ASSAY METRIC: log10(IC50) (log10 of the value in µM)

{"COMPOUND": "Cc1ncsc1-c1ccc([C@]2(C)NC(C3C[C@@H](O)CN3C(=O)[C@H](C(C)C)N3Cc4ccccc4C3=O)=NC2=O)cc1 (single isomer, unassigned) [Example 123.2]", "SYSTEM UNDER TEST": "VHL Elongin B/C complex (Homo sapiens (Human))", "log10(IC50)": 0.67}
{"COMPOUND": "Cc1cc([C@H](C(=O)N2C[C@H](O)CC2C2=NOC3(CCCc4ccccc43)N2)C(C)C)on1 (single isomer, unassigned) [Example 131.3]", "SYSTEM UNDER TEST": "VHL Elongin B/C complex (Homo sapiens (Human))", "log10(IC50)": 1.29}
{"COMPOUND": "Cc1cc([C@H](C(=O)N2C[C@H](O)C[C@H]2C2=NOC(C)(c3ccc(-c4scnc4C)cc3)N2)C(C)C)on1 (single isomer, unassigned) [Example 129.3]", "SYSTEM UNDER TEST": "VHL Elongin B/C complex (Homo sapiens (Human))", "log10(IC50)": -0.38}
{"COMPOUND": "Cc1cc(C(C(=O)N2C[C@H](O)C[C@H]2C2=NO[C@](C)(c3ccc(-c4ccccc4F)cc3)N2)C(C)C)on1 (single isomer, unassigned) [Example 139.1]", "SYSTEM UNDER TEST": "VHL Elongin B/C complex (Homo sapiens (Human))", "log10(IC50)": 1.00}
{"COMPOUND": "Cc1cc([C@H](C(=O)N2C[C@H](O)C[C@H]2C2=NO[C@](c3ccccc3)(C(F)(F)F)N2)C(C)C)on1 (mixture of isomers) [Example 114.4]", "SYSTEM UNDER TEST": "VHL Elongin B/C complex (Homo sapiens (Human))", "log10(IC50)": 1.77}
{"COMPOUND": "C#Cc1cccc(Nc2ncnc3cc(OCCOC)c(OCCOCC#CC#CCOc4cc(C(C(=O)N5C[C@H](O)CC5C5=NC(=O)[C@](C)(c6ccc(-c7scnc7C)cc6)N5)C(C)C)on4)cc23)c1 (single isomer, unassigned) [Example 1004.3]", "SYSTEM UNDER TEST": "VHL Elongin B/C complex (Homo sapiens (Human))", "log10(IC50)": 1.88}
{"COMPOUND": "Cc1cc([C@@H](C(=O)N2C[C@H](O)C[C@H]2C2=NOC(C)(c3ccc(-c4scnc4C)cc3)N2)C(C)C)on1 (single isomer, unassigned) [Example 129.2]", "SYSTEM UNDER TEST": "VHL Elongin B/C complex (Homo sapiens (Human))", "log10(IC50)": 1.77}
{"COMPOUND": "Cc1cc(C(C(=O)N2C[C@H](O)CC2C2=NC(C)(C)C(C)(C)N2)C(C)C)on1 (stereo partly drawn) [Example 136.1]", "SYSTEM UNDER TEST": "VHL Elongin B/C complex (Homo sapiens (Human))", "log10(IC50)": 1.97}
{"COMPOUND": "CC(=O)N1CCCCC1C(=O)N1C[C@H](O)CC1C1=NC(=O)[C@](C)(c2ccc(-c3scnc3C)cc2)N1 (single isomer, unassigned) [Example 124.2]", "SYSTEM UNDER TEST": "VHL Elongin B/C complex (Homo sapiens (Human))", "log10(IC50)": 1.52}
{"COMPOUND": "Cc1cc([C@@H](C(=O)N2C[C@H](O)C[C@H]2C2=NOC3(CCc4ccccc43)N2)C(C)C)on1 (single isomer, unassigned) [Example 130.1]", "SYSTEM UNDER TEST": "VHL Elongin B/C complex (Homo sapiens (Human))", "log10(IC50)": 1.98}
{"COMPOUND": "Cc1cc(C(C(=O)N2C[C@H](O)C[C@H]2C2=NN(CC(F)(F)F)C(C)(C)N2)C(C)C)on1 (single isomer, unassigned) [Example 134.2]", "SYSTEM UNDER TEST": "VHL Elongin B/C complex (Homo sapiens (Human))", "log10(IC50)": 1.68}
{"COMPOUND": "Cc1cc([C@@H](C(=O)N2C[C@H](O)CC2C2=NOC3(CCCc4ccccc43)N2)C(C)C)on1 (single isomer, unassigned) [Example 131.2]", "SYSTEM UNDER TEST": "VHL Elongin B/C complex (Homo sapiens (Human))", "log10(IC50)": 2.38}
{"COMPOUND": "C#Cc1cccc(Nc2ncnc3cc(OCCOC)c(OCCOCC#CC#CCOc4cc(C(C(=O)N5C[C@H](O)CC5C5=NC(=O)[C@](C)(c6ccc(-c7scnc7C)cc6)N5)C(C)C)on4)cc23)c1 (single isomer, unassigned) [Example 1004.1]", "SYSTEM UNDER TEST": "VHL Elongin B/C complex (Homo sapiens (Human))", "log10(IC50)": 0.80}
{"COMPOUND": "Cc1ncsc1-c1ccc([C@]2(C)NC(C3C[C@@H](O)CN3C(=O)[C@@H](NC(=O)C3(C#N)CC3)C(C)(C)C)=NC2=O)cc1 (single isomer, unassigned) [Example 111.2]", "SYSTEM UNDER TEST": "VHL Elongin B/C complex (Homo sapiens (Human))", "log10(IC50)": 0.70}

----------
# IC50 per record follows
Biological target: NanoLuc VHL fusion protein (Homo sapiens (Human))
Sequence (P40337 whole entry, looked up, the tested form may be a part): as the sequence (P40337 whole entry, looked up) above
Sequence (Q15370 whole entry partner, looked up, the tested form may be a part): as the sequence (Q15370 whole entry partner, looked up) above
Sequence (Q15369 whole entry partner, looked up, the tested form may be a part): as the sequence (Q15369 whole entry partner, looked up) above
Assay: VHL HEK-293 BRET Assay (NanoBRET Target Engagement)
Assay type: cell-based
Settings: geometric mean where more than one measurement
Protocol: The VHL NanoBRET™ Target Engagement Assay analyzes the apparent affinity of test compounds for VHL in cells by competitive displacement of a VHL NanoBRET™ tracer reversibly bound to a NanoLuc® VHL fusion protein stably expressed in the cells. […] The raw BRET ratio values were calculated by dividing the acceptor emission value (610 nm) by the donor emission value (460 nm) for each sample. […] Percentage inhibition was calculated relative to the Minimum Signal control and Maximum Signal control wells. […]
ASSAY METRIC: IC50 (µM)

{"MOLECULE": "CC(=O)N1CCCCC1C(=O)N1C[C@H](O)CC1C1=NC(=O)[C@](C)(c2ccc(-c3scnc3C)cc2)N1 (single isomer, unassigned) [Example 124.3]", "SYSTEM UNDER TEST": "NanoLuc VHL fusion protein (Homo sapiens (Human))", "QUANTITY UNIT": "µM", "NUMERIC RESULT": 100}
{"MOLECULE": "Cc1ncsc1-c1ccc([C@]2(C)NC(C3C[C@@H](O)CN3C(=O)C3N(S(C)(=O)=O)CCC3(C)C)=NC2=O)cc1 (single isomer, unassigned) [Example 125.2]", "SYSTEM UNDER TEST": "NanoLuc VHL fusion protein (Homo sapiens (Human))", "QUANTITY UNIT": "µM", "NUMERIC RESULT": 100}
{"MOLECULE": "Cc1cc([C@@H](C(=O)N2C[C@H](O)C[C@H]2C2=NOC3(CCc4ccccc43)N2)C(C)C)on1 (single isomer, unassigned) [Example 130.2]", "SYSTEM UNDER TEST": "NanoLuc VHL fusion protein (Homo sapiens (Human))", "QUANTITY UNIT": "µM", "NUMERIC RESULT": 100}
{"MOLECULE": "Cc1cc([C@H](C(=O)N2C[C@H](O)C[C@H]2C2=NO[C@](c3ccccc3)(C(F)(F)F)N2)C(C)C)on1 (mixture of isomers) [Example 114.4]", "SYSTEM UNDER TEST": "NanoLuc VHL fusion protein (Homo sapiens (Human))", "QUANTITY UNIT": "µM", "NUMERIC RESULT": 59.9}
{"MOLECULE": "Cc1ncsc1-c1ccc([C@]2(C)NC(C3C[C@@H](O)CN3C(=O)[C@@H]3CCCCN3S(C)(=O)=O)=NC2=O)cc1 (single isomer, unassigned) [Example 122.2]", "SYSTEM UNDER TEST": "NanoLuc VHL fusion protein (Homo sapiens (Human))", "QUANTITY UNIT": "µM", "NUMERIC RESULT": 39}

----------
molecular target: VHL co-expressed with Elongins B and C (Homo sapiens (Human)); experiment: Surface Plasmon Resonance Assay; assay type: binding; settings: SPR measured VHL affinity; geometric mean where more than one measurement
# Kd per record follows

{"COMPOUND": "Cc1cc([C@H](C(=O)N2C[C@H](O)C[C@H]2C2=NOC3(CCc4ccccc43)N2)C(C)C)on1 (single isomer, unassigned) [Example 130.4]", "SYSTEM UNDER TEST": "VHL co-expressed with Elongins B and C (Homo sapiens (Human))", "RELATIONAL OPERATOR": "=", "Kd, µM": 4.24}
{"COMPOUND": "Cc1ncsc1-c1ccc([C@]2(C)NC(C3C[C@@H](O)CN3C(=O)C3N(S(C)(=O)=O)CCC3(C)C)=NC2=O)cc1 (single isomer, unassigned) [Example 125.3]", "SYSTEM UNDER TEST": "VHL co-expressed with Elongins B and C (Homo sapiens (Human))", "RELATIONAL OPERATOR": "≥", "Kd, µM": 150}
{"COMPOUND": "Cc1cc(C(C(=O)N2C[C@H](O)CC2C2=NC(=O)C(C)(c3ccc(-c4cccnc4)cc3)N2)C(C)C)on1 (single isomer, unassigned) [Example 105.1]", "SYSTEM UNDER TEST": "VHL co-expressed with Elongins B and C (Homo sapiens (Human))", "RELATIONAL OPERATOR": "=", "Kd, µM": 241}
{"COMPOUND": "Cc1ncsc1-c1ccc([C@]2(C)NC(C3C[C@@H](O)CN3C(=O)[C@@H](NC(=O)C3(C#N)CC3)C(C)(C)C)=NC2=O)cc1 (single isomer, unassigned) [Example 111.2]", "SYSTEM UNDER TEST": "VHL co-expressed with Elongins B and C (Homo sapiens (Human))", "RELATIONAL OPERATOR": "=", "Kd, µM": 1.86}
{"COMPOUND": "CC(=O)N[C@H](C(=O)N1C[C@H](O)CC1C1=NC(=O)C(C)(c2ccc(Br)cc2)N1)C(C)(C)C (single isomer, unassigned) [Example 101.3]", "SYSTEM UNDER TEST": "VHL co-expressed with Elongins B and C (Homo sapiens (Human))", "RELATIONAL OPERATOR": "=", "Kd, µM": 332}

Each recorded value in this set is attributed to patent US11242344B2.
